Let's look at some molecules and their measured Fold change in RNA expression between the ON state and the OFF state.
# Tested on: Renilla luciferase RNA
# ASSAY_METHOD_TEXT: Barcoded aptazyme variant library screen: un-cleaved Renilla luciferase RNA by barcode read counts, HEK293-T cells
# Format: cell-based
# EXPERIMENTAL_PARAMETERS: un-cleaved Renilla luciferase RNA, HEK293-T cells cultured with 1 mM theophylline (ON) over without theophylline (OFF); barcode read counts, triplicate
Express your answer in fold, writing the number without its unit.

Previously resolved entries follow.
MOLECULE	UNIT_SPEC	REPORTED_VALUE
RA265 (nucleic acid, expressed or natural sequence) DNA: GCGCGTCCTGGATTCGCGGAAACGCGTACATCCAGCTGACGAGTCCCAAAGGAATACCAGCATCGTCTTGATGCCCTTGGAAGTCCTAGGACGAAACGCGC	fold	1.0
RA124 (nucleic acid, expressed or natural sequence) DNA: GCGCGTCCTGGATTCGCGGAAACGCGTACATCCAGCTGACGCGGAATACCAGCATCGTCTTGATGCCCTTGGAAGTCCGAGTCCCAAATAGGACGAAACGCGC	fold	1.5

Form field: reported Fold change in RNA expression between the ON state and the OFF state of RA296 (nucleic acid, expressed or natural sequence) DNA: GCGCGTCCTGGATTCGCGGAAACGCGTACATCCAGCTGACGAGTCCCAAATAGGAGAATACCAGCATCGTCTTGATGCCCTTGGAAGTCTACGAAACGCGC
1.0

Form field: reported Fold change in RNA expression between the ON state and the OFF state of RA022 (nucleic acid, expressed or natural sequence) DNA: GCGCGTCCTGGATTCGCGGAAACGCGTACAAGTGATACCAGCATCGTCTTGATGCCCTTGGCAGCACTTCCAGCTGACGAGTCCCAAATAGGACGAAACGCGC
2.6
